Assign Minimum bacteriostatic concentration to each entry below.
# Tested on: multidrug-resistant Pseudomonas aeruginosa MDR-PA 18-1774,18-202
# RUN_DESCRIPTION: MIC by microbroth dilution method, MDR-PA strains
# Format: cell-based
# SETUP_CONDITIONS: strain MDR-PA 18-174; 37° C., 20-22 hours
One number for each entry, in µg/mL.

MOLECULE	MEASUREMENT_TARGET	QUANTITY_MEASURED	UNIT_DESCRIPTOR	RECORDED_NUMBER
CO/N=C(\C(=O)N[C@@H]1C(=O)N2C(C(=O)O)=C(CSc3nc(=O)c(=O)[nH]n3C)CS[C@H]12)c1csc(N)n1 [Ceftriaxone sodium, ceftriaxone sodium]	multidrug-resistant Pseudomonas aeruginosa MDR-PA 18-1774,18-202	Minimum bacteriostatic concentration	µg/mL	128

Shift focus to the following entry.
Using the record for Cc1nnc(SCC2=C(C(=O)O)N3C(=O)[C@@H](NC(=O)Cn4cnnn4)[C@H]3SC2)s1 [Cefazolin sodium, cefazolin sodium] , report its Minimum bacteriostatic concentration. 8
